# systemUnderTest: AMPKα1 (Homo sapiens (Human))
# Sequence (Q13131 whole entry, looked up): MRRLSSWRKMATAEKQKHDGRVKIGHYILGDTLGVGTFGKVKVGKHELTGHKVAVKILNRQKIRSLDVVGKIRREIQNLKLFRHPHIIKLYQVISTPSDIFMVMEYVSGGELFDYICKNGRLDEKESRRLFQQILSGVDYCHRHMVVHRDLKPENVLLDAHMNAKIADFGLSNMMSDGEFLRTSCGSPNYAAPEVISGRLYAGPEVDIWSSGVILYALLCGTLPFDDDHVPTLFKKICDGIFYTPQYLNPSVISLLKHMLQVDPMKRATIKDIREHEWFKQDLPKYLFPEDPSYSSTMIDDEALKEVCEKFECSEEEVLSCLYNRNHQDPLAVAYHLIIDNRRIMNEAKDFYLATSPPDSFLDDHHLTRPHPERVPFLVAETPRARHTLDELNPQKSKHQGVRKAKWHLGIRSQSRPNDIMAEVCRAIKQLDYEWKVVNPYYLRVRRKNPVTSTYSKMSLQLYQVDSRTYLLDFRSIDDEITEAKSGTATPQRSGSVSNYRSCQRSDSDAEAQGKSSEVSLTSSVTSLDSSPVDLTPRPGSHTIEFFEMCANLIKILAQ
# Sequence (Q9Y478 whole entry partner, looked up): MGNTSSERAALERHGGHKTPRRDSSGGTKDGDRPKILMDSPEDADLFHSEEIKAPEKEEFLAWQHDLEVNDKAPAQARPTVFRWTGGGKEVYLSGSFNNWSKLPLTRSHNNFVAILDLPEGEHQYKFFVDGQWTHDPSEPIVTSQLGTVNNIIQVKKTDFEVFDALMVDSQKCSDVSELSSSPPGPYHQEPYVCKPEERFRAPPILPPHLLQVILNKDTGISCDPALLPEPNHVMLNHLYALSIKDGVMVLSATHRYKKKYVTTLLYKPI
# Sequence (P54619 whole entry partner, looked up): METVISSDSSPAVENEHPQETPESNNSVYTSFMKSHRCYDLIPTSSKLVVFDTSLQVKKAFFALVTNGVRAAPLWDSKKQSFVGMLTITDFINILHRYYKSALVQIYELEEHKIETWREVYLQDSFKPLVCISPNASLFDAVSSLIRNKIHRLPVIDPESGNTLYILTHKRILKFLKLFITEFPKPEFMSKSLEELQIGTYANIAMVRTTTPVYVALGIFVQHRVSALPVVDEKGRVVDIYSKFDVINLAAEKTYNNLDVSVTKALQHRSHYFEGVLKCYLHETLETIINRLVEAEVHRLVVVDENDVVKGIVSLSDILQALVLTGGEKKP
# assayProcedure: LANCE Eu TR-FRET recombinant kinase assay, AMPK(α1)
# Type: biochemical
# experimentalParameters: mean±S.D. (n=3); ATP 8 μM; read-out: IC50 (nM) AMPK(α1)
Catalogue of molecules with associated IC50
outcomeMeasure: IC50 (nM)

1. CCN(CC)CCCNC(=O)c1c(C)[nH]c(/C=C2\C(=O)Nc3ccc(F)cc32)c1C : 152
2. CCNCCNC(=O)c1c(C)[nH]c(/C=C2\C(=O)Nc3ccc(F)cc32)c1C : 180
3. CCN(CC)CCNC(=O)c1c(C)[nH]c(/C=C2\C(=O)Nc3ccc(CCO)cc32)c1C : 173
4. CCN(CC)CCNC(=O)c1c(C)[nH]c(/C=C2\C(=O)Nc3cc(F)ccc32)c1C : 240
5. CCN(CC)CCNC(=O)c1c(C)[nH]c(/C=C2\C(=O)Nc3ccc(CCOC)cc32)c1C : 296
6. CCN(CC)CCNC(=O)c1c(C)[nH]c(/C=C2\C(=O)Nc3ccc(CNC(N)=O)cc32)c1C : 205
7. CCN(CC)CCNC(=O)c1c(C)[nH]c(/C=C2\C(=O)Nc3ccc(CCC(N)=O)cc32)c1C : 107
8. CCN(CC)CCNC(=O)c1c(C)[nH]c(/C=C2\C(=O)Nc3ccccc32)c1C : 246

Origin of measurements: patent US12435059B2
